System: RAW-Dual
Assay procedure: NF-kB SEAP reporter activity, fold change vs agonist alone; cytotoxicity flag (confluency mask): not cytotoxic; higher = enhanced NF-kB activity
Measurement setup: agonist: Pam3CSK4 (TLR2/1) 0.1 ug/mL
Whole data set: some 2,900 compounds, median “NF-kB SEAP reporter activity, fold change vs agonist alone” near 0.99, cut for the highest 2% near 2.6. Many of the other results were omitted from the sample, so the highest values are more common in it than they were.
Measured endpoint: NF-kB SEAP reporter activity

Please review the following examples before continuing.
{"Compound": "Cc1nnc(C(C)C)n1C1CC2CCC(C1)N2CCC(NC(=O)C1CCC(F)(F)CC1)c1ccccc1 (stereo not given) (library stock concentration (final ~1000-fold dilution): 10 mM)", "Reported result": 1.11}
{"Compound": "CCn1cc(C(=O)O)c(=O)c2cc(F)c(N3CCN(C)CC3)cc21.CS(=O)(=O)O.O.O (library stock concentration (final ~1000-fold dilution): 10 mM)", "Reported result": 1.01}

Fill blank: measured NF-kB SEAP reporter activity of the compound COc1ccc(CNCc2cccc3ccccc23)cc1.Cl (library stock concentration (final ~1000-fold dilution): 10 mM) is ____.
1.06

Now consider Cn1cc(C2=C(c3ccc(Cl)cc3Cl)C(=O)NC2=O)c2ccccc21 (library stock concentration (final ~1000-fold dilution): 10 mM) .
2.34

Now consider CCc1c(N(CC)C2CCOCC2)cc2oc(C3CCN(C(C)C)CC3)cc2c1C(=O)NCc1c(C)cc(C)[nH]c1=O (library stock concentration (final ~1000-fold dilution): 10 mM) .
0.941

* * *

System: RAW-Dual
Assay procedure: NF-kB SEAP reporter activity, fold change vs agonist alone; higher = enhanced NF-kB activity
Measurement setup: library stock concentration (final ~1000-fold dilution): 10 mM; cytotoxicity flag (confluency mask): not cytotoxic; agonist: MPLA (TLR4) […]
The full ranking holds about 2,900 compounds; the median of “NF-kB SEAP reporter activity, fold change vs agonist alone” is about 0.99, and the highest 2% start at about 2.6. Shown is part of a subset that was picked to be rich in the highest values.
The entries below come with measured NF-kB SEAP reporter activity values attached.
Lab note: write the figure by itself, no unit.

Please review the following examples before continuing.
{"Compound": "CC(NC(=O)CCc1nc2ccccc2c(=O)[nH]1)c1ccccc1 (centres undefined)", "Measured endpoint": "NF-kB SEAP reporter activity", "Reported result": 1.03}
{"Compound": "CC1CNC(=O)c2cnn3ccc(nc23)NC(C)c2cc(F)ccc2O1 (centres undefined)", "Measured endpoint": "NF-kB SEAP reporter activity", "Reported result": 0.916}
{"Compound": "CCC1OC(=O)C(C)C(OC2CC(C)(OC)C(O)C(C)O2)C(C)C(OC2OC(C)CC(N(C)C)C2O)C(C)(O)CC(C)CN(C)C(C)C(O)C1(C)O.O.O (centres undefined)", "Measured endpoint": "NF-kB SEAP reporter activity", "Reported result": 1.46}
{"Compound": "CC(NC(=O)c1ccccc1N=Cc1c(O)ccc2ccccc12)c1ccccc1 (centres undefined)", "Measured endpoint": "NF-kB SEAP reporter activity", "Reported result": 2.25}
{"Compound": "CC(NC(=Nc1cccc2ncccc12)NC#N)c1ccccc1 (centres undefined)", "Measured endpoint": "NF-kB SEAP reporter activity", "Reported result": 1.12}
{"Compound": "CCN(CC)CCNC(=O)c1ccc(N)cc1.Cl", "Measured endpoint": "NF-kB SEAP reporter activity", "Reported result": 1.05}

Fill blank: measured NF-kB SEAP reporter activity of the compound CC(C)(C)NC(=O)c1cncn1C1CCN(c2ccc(-c3nnc(C(F)(F)F)o3)cn2)CC1 is ____.
2.37

Now consider O=C(NO)c1cccc(C(=O)NCCc2ccccc2)c1 .
1.05

Now consider C=CC(=O)N1CC(N2CCN(C(=O)CNc3cc(C4(C)CC4)c(Cl)cc3O)CC2)C1 .
0.645

Now consider CS(=O)(=O)CCNCc1ccc(-c2ccc3ncnc(Nc4ccc(OCc5cccc(F)c5)c(Cl)c4)c3c2)o1.Cc1ccc(S(=O)(=O)O)cc1.Cc1ccc(S(=O)(=O)O)cc1 .
1.56

Now consider Nc1nonc1/C(=N\O)Nc1ccc(F)c(Cl)c1 .
0.933

Now consider O=C(N/N=C/c1ccc(O)c(O)c1)c1cc2ccccc2cc1O .
0.843

Now consider O=c1oc2cc(O)ccc2c2ccc(O)cc12 .
1.58

Now consider CS(=O)(=O)CCNCc1ccc(-c2ccc3ncnc(Nc4ccc(OCc5cccc(F)c5)c(Cl)c4)c3c2)o1.Cc1ccc(S(=O)(=O)O)cc1.Cc1ccc(S(=O)(=O)O)cc1.O .
1.99

* * *

System: RAW-Dual
Assay procedure: NF-kB SEAP reporter activity, fold change vs agonist alone; cytotoxicity flag (confluency mask): not cytotoxic; higher = enhanced NF-kB activity
Measurement setup: agonist: Pam3CSK4 (TLR2/1) 0.1 ug/mL
Over roughly 2,900 compounds, “NF-kB SEAP reporter activity, fold change vs agonist alone” has its median near 0.99; the highest 2% begin near 2.6. The full list was thinned out, with the highest values kept by preference.
Response key: YES means NF-kB SEAP reporter activity >= 1; NO means NF-kB SEAP reporter activity < 1.

Kindly determine if NF-kB SEAP reporter activity recorded for CS(=O)(=O)O.Cc1c(O)cccc1C(=O)NC(CSc1ccccc1)C(O)CN1CC2CCCCC2CC1C(=O)NC(C)(C)C (stereo not given) (library stock concentration (final ~1000-fold dilution): 10 mM) is above or exactly 1.
NO

Now consider Cc1nc[nH]c1CN1CCc2c(c3ccccc3n2C)C1=O.Cl (library stock concentration (final ~1000-fold dilution): 2 mM water) .
NO

Now consider Cc1ccc(-c2c(-c3nn(C)c4ncnc(N5CCC(N6CCCCC6)C5)c34)cnn2C)cc1 (stereo not given) (library stock concentration (final ~1000-fold dilution): 10 mM) .
YES

Now consider CC(C)(C)NC(=O)C1CN(Cc2cccnc2)CCN1CC(O)CC(Cc1ccccc1)C(=O)NC1c2ccccc2CC1O.O=S(=O)(O)O (stereo not given) (library stock concentration (final ~1000-fold dilution): 10 mM) .
YES

Now consider C=C1CCCC2(C)C=C3OC(=O)C(C)=C3CC12 (stereo not given) (library stock concentration (final ~1000-fold dilution): 10 mM) .
YES

* * *

System: RAW-Dual
Assay procedure: NF-kB SEAP reporter activity, fold change vs agonist alone; higher = enhanced NF-kB activity
Measurement setup: library stock concentration (final ~1000-fold dilution): 10 mM; cytotoxicity flag (confluency mask): not cytotoxic; agonist: MPLA (TLR4) […]
Over roughly 2,900 compounds, “NF-kB SEAP reporter activity, fold change vs agonist alone” has its median near 0.99; the highest 2% begin near 2.6. What follows is part of a selection rich in the highest values, with near analogues and random picks from the rest.
Measured endpoint: NF-kB SEAP reporter activity
Lab note: write the figure by itself, no unit.

Please review the following examples before continuing.
{"Compound": "C#Cc1cccc(Nc2ncnc3cc(OCCOC)c(OCCOC)cc23)c1", "Tested target": "RAW-Dual", "NF-kB SEAP reporter activity": 1.88}
{"Compound": "O=C(O)c1ccc(O)c2ncccc12", "Tested target": "RAW-Dual", "NF-kB SEAP reporter activity": 1.03}
{"Compound": "C=CC1CC1(NC(=O)C1CC2CN1C(=O)C(C(C)(C)C)NC(=O)OC1CC1CCCCCc1nc3ccc(OC)cc3nc1O2)C(=O)NS(=O)(=O)C1CC1 (stereo not given)", "Tested target": "RAW-Dual", "NF-kB SEAP reporter activity": 1.22}
{"Compound": "Cn1cc(Nc2nccc(N3CC4CCC(C3)N4C(=O)C3CC3(F)F)n2)cn1 (stereo not given)", "Tested target": "RAW-Dual", "NF-kB SEAP reporter activity": 0.995}
{"Compound": "COc1cc2ncnc(Nc3cc(Br)c(O)c(Br)c3)c2cc1OC", "Tested target": "RAW-Dual", "NF-kB SEAP reporter activity": 1.53}

With those in mind, consider the next compound.
Fill in the recorded NF-kB SEAP reporter activity for this compound, with RAW-Dual as test system: COc1cc2ncnc(Nc3cccc(Cl)c3F)c2cc1OC(=O)N1CCN(C)CC1C (stereo not given)
1.05

* * *

Tested on: RAW-Dual
Assay procedure: NF-kB SEAP reporter activity, fold change vs agonist alone; cytotoxicity flag (confluency mask): not cytotoxic; higher = enhanced NF-kB activity
Measurement setup: agonist: Pam3CSK4 (TLR2/1) 0.1 ug/mL
Over roughly 2,900 compounds, “NF-kB SEAP reporter activity, fold change vs agonist alone” has its median near 0.99; the highest 2% begin near 2.6. The sample holds the highest values, similar compounds and a random draw of the others, so the mix is not that of the screen.
Response key: met means NF-kB SEAP reporter activity >= 1; not met means NF-kB SEAP reporter activity < 1.

The examples below pair each entry with its known result.
{"Molecule": "CNCCN(C)Cc1c[nH]nc1-c1ccc(OC2CC(OCCC3CCOCC3)C2)cc1.Cl.Cl (stereo not given) (library stock concentration (final ~1000-fold dilution): 10 mM)", "Assigned class": "not met"}
{"Molecule": "Cc1ccc(Sc2cncc3sc(C(N)=O)cc23)cc1 (library stock concentration (final ~1000-fold dilution): 10 mM)", "Assigned class": "met"}

Alright, here's another molecule for you.
Kindly determine if NF-kB SEAP reporter activity recorded for CN(c1ncccc1CNc1nc(Nc2ccc3c(c2)CC(=O)N3)ncc1C(F)(F)F)S(C)(=O)=O.O=S(=O)(O)c1ccccc1 (library stock concentration (final ~1000-fold dilution): 10 mM) is above or exactly 1.
not met
